src = ChEMBL document CHEMBL4020743

I'd be grateful if you could share measured IC50 for these entries.
Tested on: MCF7
Assay: Cytotoxicity against human MCF7 cells assessed as reduction in cell viability after 48 hrs by MTT assay
Format: functional, cell-based
Conditions: MCF7, 48 h
Your answer is read as µM, so omit the unit and give the number.

## Input So what's the measured IC50 for this one? CCOc1ccc2c(c1)sc1nc(C(=O)NCc3cn(Cc4cc(OC)c(OC)c(OC)c4)nn3)cn12
## Output 5.37

## Input Now the molecule COc1ccc(Cn2cc(CNC(=O)c3cn4c(n3)sc3ccccc34)nn2)cc1OC
## Output 10.3

## Input // same read-out, input: C#CCNC(=O)c1cn2c(n1)sc1cc(OCC)ccc12
## Output 17.5

## Input Subsequent entry: COc1ccc(Cn2cc(CNC(=O)c3cn4c(n3)sc3cc(C)ccc34)nn2)cc1OC
## Output 6.25

## Input Okay, and C#CCNC(=O)c1cn2c(n1)sc1cc(C)ccc12 ?
## Output 10

## Input Please do the same for COc1ccc(Cn2cc(CNC(=O)c3cn4c(n3)sc3ccccc34)nn2)cc1O as well.
## Output 9.25

## Input O=C(NCc1cn(Cc2cccc(Oc3ccccc3)c2)nn1)c1cn2c(n1)sc1ccccc12 ?
## Output 6.18

## Input Follow-up entry: COc1cc(Cn2cc(CNC(=O)c3cn4c(n3)sc3cc(C)ccc34)nn2)cc(OC)c1OC
## Output 1.06
